Provenance of the data: the METLIN SMRT retention time set (Domingo-Almenara et al. 2019)

Assay: gradient 5% acetonitrile 3 min, to 50% in 2 min, to 85% in 15 min, held 3 min, 100 µL/min
Details: column: Zorbax Extend-C18 2.1 x 50 mm; eluents: water / acetonitrile, 0.1% formic acid
parameter.measured: RP-LC retention time
Lab note: write values as number then unit, every time.

Take a look at these entries with their results.
# compound, RP-LC retention time
rows = [
    ("O=C1CN(S(=O)(=O)c2ccc(F)c(Cl)c2)CC2(CCOCC2)N1CC1CC1", "881 s"),
    ("O=C(NCc1[nH]nc2ccccc12)c1ccc(Cl)cc1", "779 s"),
]

Form field: reported RP-LC retention time of CC1=C(c2cccc(Cl)c2)S(=O)(=O)N=C1N1CCC(NC(=O)NCC(C)C)CC1
651 s

Subsequent entry: O=C(NC1CCCCCC1)c1ccc(CN2CCN(Cc3ccccc3)C(=O)C2=O)cc1
812 s

Subsequent entry: COC[C@@H]1CN(Cc2cccc(OC)n2)C[C@H]1c1ccncc1
536 s

Subsequent entry: CN(CC1CCOCC1)C(=O)Cc1ccccc1Cl
771 s

Subsequent entry: O=C(NC1CCCCC1)c1nc(-c2cn(-c3ccc(Cl)cc3)nn2)no1
1030 s

Subsequent entry: O=S(=O)(c1cc(-c2ccno2)cs1)N(CCc1ccccc1)Cc1ccccc1
1200 s

Subsequent entry: Cc1cc2c(cc1S(=O)(=O)N1CCCC1C(=O)NC1CCCCCCC1)OCC(=O)N2 (stereo not given)
834 s

Subsequent entry: CC1CCCN(c2ccn3c(=O)n(CC(=O)Nc4cccc(Cl)c4)nc3n2)C1 (stereo not given)
835 s

---

Test: gradient 5% acetonitrile 3 min, to 50% in 2 min, to 85% in 15 min, held 3 min, 100 µL/min
Conditions: column: Zorbax Extend-C18 2.1 x 50 mm; eluents: water / acetonitrile, 0.1% formic acid
Overview of reported RP-LC retention time across a group of compounds:
// return numeric value only (unit: s, not printed)

# compound, parameter.measured, val
records = [
    ("CCOC(=O)N1CCN(c2nc(-c3cccc([N+](=O)[O-])c3)cs2)CC1", "RP-LC retention time", 1080),
    ("CS(=O)(=O)N1C[C@@H](COc2cccnc2)[C@H](c2ccccn2)C1", "RP-LC retention time", 554),
    ("Clc1cccc(-c2nnc(Cc3nc(-c4ccc5c(c4)OCO5)no3)o2)c1", "RP-LC retention time", 1020),
]

Form field: reported RP-LC retention time of O=C(CSc1ncc(-c2cccc(Cl)c2)o1)Nc1ccccc1C(F)(F)F
1070

Subsequent entry: Cc1nnc(NC(=O)C2CCN(C(=O)c3ccc(F)cc3)CC2)s1
624

Subsequent entry: CC(C)CNC(=O)c1cn(-c2cc(-c3nc(C4CC4)no3)ccn2)cn1
646

Subsequent entry: O=C(CN1C(=O)COc2ccc(C(=O)N3CCN(c4ccccn4)CC3)cc21)N1CCCC1
572

Subsequent entry: Cc1[nH]c(C(=O)N2CCN(c3cccc(Cl)c3)CC2)c(C)c1S(=O)(=O)N1CCC(C)CC1
1090

---

Assay: gradient 5% acetonitrile 3 min, to 50% in 2 min, to 85% in 15 min, held 3 min, 100 µL/min
Details: column: Zorbax Extend-C18 2.1 x 50 mm; eluents: water / acetonitrile, 0.1% formic acid
Output yes for records whose RP-LC retention time is lower than 700 s, no for records at or above 700 s.

Does COc1ccc(S(=O)(=O)N2CC3CN(C(=O)C4CCCCC4)CC(C2)O3)cc1 have RP-LC retention time strictly under 700 s?
no

Subsequent entry: Cc1ccc(-c2cc(C(=O)NC3CCC(C)CC3)c(C)[nH]2)cc1 (stereo not given)
no

Subsequent entry: Cc1ccc(-c2cc3c(=O)n(Cc4noc(CN5CCCCCC5)n4)ccn3n2)c(C)c1
no

Subsequent entry: Cc1cc(Cl)ccc1NS(=O)(=O)c1cc(-c2[nH]ncc2C(=O)N(C)C)oc1C
no

---

Overview of reported RP-LC retention time across a group of compounds:
Assay: gradient 5% acetonitrile 3 min, to 50% in 2 min, to 85% in 15 min, held 3 min, 100 µL/min
Details: column: Zorbax Extend-C18 2.1 x 50 mm; eluents: water / acetonitrile, 0.1% formic acid
// return numeric value only (unit: s, not printed)

# compound, parameter.measured, val
rows = [
    ("O=C(Cn1c(=O)c2cccn2c2ccc(F)cc21)NCCC1=CCCCC1", "RP-LC retention time", 952),
    ("O=C(Nc1ccc(N2CCN(c3ccccc3)C2=O)nc1)c1ccc(F)cc1", "RP-LC retention time", 934),
    ("CCOC(=O)c1ncn2c1[C@@H]1CCCN1C(=O)c1cc(OC)ccc1-2", "RP-LC retention time", 758),
    ("O=C(NC1CCc2ccccc21)C1CCN(c2ncnc3c2oc2ccccc23)CC1 (centres undefined)", "RP-LC retention time", 778),
]

Form field: reported RP-LC retention time of CC(NC(=O)C1C(=O)NC2(C)CC1c1ccccc1O2)c1ccccc1 (centres undefined)
831

Subsequent entry: Cc1nc2c(NC(=O)c3ccccn3)cccn2n1
763

Subsequent entry: CCCOc1cccc2c1CCN(Cc1ccc(F)cc1)C2=O
1040

Subsequent entry: Cc1ccccc1-n1c(=O)c2sccc2n(Cc2nc(-c3cccc(Br)c3)no2)c1=O
1110

Subsequent entry: COc1cc(C(=O)Nc2nc(-c3ccc4c(c3)NC(=O)CO4)cs2)cc(OC)c1OC
824

Subsequent entry: Cc1ccc(C)c(NC(=O)c2cn3c(n2)CCCC3)c1
603

Subsequent entry: O=C(c1ccco1)N1CCN(C(=O)c2cccn2CC(=O)N2CCc3ccccc32)CC1
711

Subsequent entry: CC1Oc2ccc(S(=O)(=O)N3CCC(C(=O)NCc4ccco4)CC3)cc2NC1=O (centres undefined)
722

Subsequent entry: Cc1nnc(-c2sccc2C)o1
742

Subsequent entry: Cc1nnc(N2CCN(C(=O)Nc3ccc4c(c3)OCCO4)CC2)c2nn(-c3ccccc3)c(C)c12
679

Subsequent entry: Cc1ccccc1CNC(=O)c1ccc2c(c1)n(C)c(=O)c1ccnn12
739

Subsequent entry: O=C(NC1CCCCC1)c1nc(Cn2c(=O)oc3ccc(Cl)cc32)no1
981

Subsequent entry: CCOC(=O)c1sc2nc(C)cc(C)c2c1NC(=O)CCS(=O)(=O)c1ccccc1
759

Subsequent entry: Cc1cccc(C(=O)N2CCC3(CC2)NC(=O)c2cc(C)ccc2N3C)c1
805

---

Overview of reported RP-LC retention time across a group of compounds:
Assay: gradient 5% acetonitrile 3 min, to 50% in 2 min, to 85% in 15 min, held 3 min, 100 µL/min
Conditions: column: Zorbax Extend-C18 2.1 x 50 mm; eluents: water / acetonitrile, 0.1% formic acid
// return numeric value only (unit: s, not printed)

Take a look at these entries with their results.
# compound, RP-LC retention time, s
data = [
    ("O=C(Nc1ccccc1F)C1CCN(S(=O)(=O)c2cc(C(=O)N3CCOCC3)cs2)CC1", 742),
    ("Fc1ccc(F)c(-c2nc(-c3ccc4c(c3)ncn4CCN3CCCC3)no2)c1", 624),
    ("CC1C(=O)NCCN1C(=O)Cc1ccc2c(c1)OCO2 (stereo not given)", 600),
    ("Cc1cccc(Cn2c(=O)n(CCNC(=O)CC(C)(C)C)c3ncccc32)c1", 864),
]

Turning to the following compound.
Form field: reported RP-LC retention time of Cc1ccc(C(=O)N2CCCC(COc3ccc(C(=O)NC(C)C)cc3)C2)c(C)c1 (stereo not given)
916

---

Experiment: gradient 5% acetonitrile 3 min, to 50% in 2 min, to 85% in 15 min, held 3 min, 100 µL/min
Details: column: Zorbax Extend-C18 2.1 x 50 mm; eluents: water / acetonitrile, 0.1% formic acid
Binary call on RP-LC retention time: y from 900 s upward, n beneath that.

Some solved entries appear below for comparison.
# compound, label.class
data = [
    ("CCn1cnc(S(=O)(=O)N2CCC(C(=O)N3CCc4ccccc43)CC2)c1", "n"),
    ("Cc1ccc(-c2noc(Cc3nc(-c4ccc(F)cc4)cs3)n2)cc1", "y"),
    ("CC1CCN(C(=O)Cn2nc(C(=O)N3CCCC3)c3ccccc32)CC1", "n"),
    ("CC(C)c1ccc(N2C(=O)C3N=NN(Cc4nc(-c5ccc(Br)cc5)no4)C3C2=O)cc1 (stereo not given)", "y"),
]

Here is the next item to consider.
Answer whether RP-LC retention time of CCN1C(=O)c2ccccc2Oc2ccc(C(=O)NCc3cc(OC)ccc3OC)cc21 is greater than or equal to 900 s.
y

---

Experiment: gradient 5% acetonitrile 3 min, to 50% in 2 min, to 85% in 15 min, held 3 min, 100 µL/min
Conditions: column: Zorbax Extend-C18 2.1 x 50 mm; eluents: water / acetonitrile, 0.1% formic acid
parameter.measured: RP-LC retention time
Lab note: write values as number then unit, every time.

Take a look at these entries with their results.
# compound, val
rows = [
    ("O=C1CC(/C=C/c2ccccc2)Cc2nc(N3CCN(c4ccccn4)CC3)ncc21 (stereo not given)", "754 s"),
    ("Cn1cnc(S(=O)(=O)N2CCC(c3noc(-c4ccccc4)n3)C2)c1 (stereo not given)", "748 s"),
    ("O=C(CN1C(=O)NC2(CCCCC2)C1=O)Nc1ccc(F)cc1", "731 s"),
    ("CC(C)C(=O)N1CCN(c2ccc(=O)n(-c3ccc(C(C)C)cc3)n2)CC1", "834 s"),
]

Turning to the following compound.
Form field: reported RP-LC retention time of Cc1nc(-c2ccc(S(=O)(=O)N3CCN(c4ccccn4)CC3)cc2)co1
640 s
